# Tgt: FLT3 (Homo sapiens)
# Experiment summary: DiscoverX KINOMEscan active site-directed competition binding, FLT3
# Conditions used: Table 12; no ATP
pKd: −log10 of the molar value.
Observation type: pKd

I. COc1cn2ncc(-c3nc(N[C@H]4CNCC[C@@H]4F)c(C#N)cc3F)c2nc1C(C)(C)O
II. COc1cn2ncc(-c3nc(N[C@H]4CNCC[C@@H]4F)c(F)cc3F)c2nc1C(C)(C)O
q: Form field 'greater pKd' accepts I or II ; which applies? Please reply using the label of the selected record.
a: I
(I: 9.55, II: 9.21)

###

# Test system: THP1 cells
# Experiment summary: Combination drug screening with venetoclax, Cell Titer Glo, THP1
# Format: cell-based
# Conditions used: compound 0-10 μM, venetoclax 0-2 μM, 10 × 10, 48 h, negative = synergy
# Excess HSA per entry
No unit in the answer, please; the number alone is enough.

Some entries whose results are on file:
>  <Molecule>
COc1cn2ncc(-c3nc(N[C@H]4CNCC[C@@H]4F)c(F)cc3F)c2nc1C1CC1

>  <Observation type>
Excess HSA

>  <Measured>
−850.4

$$$$
>  <Molecule>
COc1cn2ncc(-c3ccnc(N[C@H]4CNCC[C@@H]4F)n3)c2nc1C(C)(C)O

>  <Observation type>
Excess HSA

>  <Measured>
−1645

$$$$
>  <Molecule>
COc1cn2ncc(-c3nc(N[C@H]4CNCC[C@@H]4F)ncc3F)c2nc1C1CC1 [Compound 15a]

>  <Observation type>
Excess HSA

>  <Measured>
−861.1

$$$$

Attention now shifts to the item below.
q: Suppose we examine the molecule "COc1cn2ncc(-c3nc(N[C@H]4CNCC[C@@H]4F)ncc3F)c2nc1C(C)(C)O" ; what Excess HSA value has been reported?
a: −786.4

###

# Tgt: FLT3 D835Y (Homo sapiens, UniProt P36888, D835Y)
# Experiment summary: DiscoverX KINOMEscan active site-directed competition binding, FLT3 D835Y
# Conditions used: Table 18; no ATP
Observation type: Kd (nM)

>  <Molecule>
COc1cn2ncc(-c3cncc(N[C@H]4CNCC[C@@H]4F)n3)c2nc1C1CC1 [Compound 12a]

>  <Unit>
nM

>  <Kd>
0.62

$$$$

1. COc1cn2ncc(-c3nc(N[C@H]4CNCC[C@@H]4F)ncc3F)c2nc1C1CC1 [Compound 15a]
2. COc1cn2ncc(-c3ccnc(N[C@H]4CNCC[C@@H]4F)n3)c2nc1C1CC1 [Compound 7a]
q: Please indicate which entry, 1 or 2 , has the lower recorded Kd value. Answer with the label corresponding to your selection.
a: 1

###

# Tgt: FLT3 (Homo sapiens)
# Experiment summary: NanoBRET target engagement assay in HEK-293 cells, FLT3
# Type: cell-based
# Conditions used: Table 14; live HEK-293 cells, 1 h
pIC50: −log10 of the molar value.
Observation type: pIC50

>  <Molecule>
COc1cn2ncc(-c3nc(N[C@H]4CNCC[C@@H]4F)ccc3F)c2nc1C1CC1 [Compound 3]

>  <Observation type>
pIC50

>  <Measured>
> 9.30

$$$$
>  <Molecule>
COc1cn2ncc(-c3ccc(F)c(N[C@H]4CNCC[C@@H]4F)n3)c2nc1C1CC1 [Compound 6]

>  <Observation type>
pIC50

>  <Measured>
> 9.30

$$$$

Now consider the entry below.
q: Quick one: pIC50 for COc1cn2ncc(-c3nc(N[C@H]4CNCC[C@@H]4F)c(F)cc3F)c2nc1C1CC1 [Compound 22] ?
a: > 9.30
